Hello, the source for this data is ChEMBL document CHEMBL3259714, in case you need it.

pKi: −log10 of the molar value.
The reader will find pKi measurements below, all made with Carbonic anhydrase 12 (Homo sapiens, UniProt O43570).
Sequence (O43570 whole entry): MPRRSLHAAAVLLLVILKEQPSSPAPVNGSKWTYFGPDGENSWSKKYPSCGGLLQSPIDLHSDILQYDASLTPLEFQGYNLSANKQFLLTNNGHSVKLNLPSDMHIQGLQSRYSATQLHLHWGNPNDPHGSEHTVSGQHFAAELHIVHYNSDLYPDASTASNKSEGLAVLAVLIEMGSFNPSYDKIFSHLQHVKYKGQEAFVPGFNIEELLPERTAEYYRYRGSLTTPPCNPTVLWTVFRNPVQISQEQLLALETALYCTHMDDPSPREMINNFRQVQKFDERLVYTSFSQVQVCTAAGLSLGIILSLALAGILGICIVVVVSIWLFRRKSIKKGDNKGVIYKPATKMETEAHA
measureName: pKi

[[record]]
cpdsmiles = "Cc1nn(C)c2nnc(Nc3ccc(S(=O)(=O)NCCN)cc3)nc12"
testedon = "Carbonic anhydrase 12 (Homo sapiens, UniProt O43570)"
measurename = "pKi"
resultvalue = 8.15

[[record]]
cpdsmiles = "Cc1nn(C)c2nnc(Nc3ccc(S(N)(=O)=O)cc3)nc12"
testedon = "Carbonic anhydrase 12 (Homo sapiens, UniProt O43570)"
measurename = "pKi"
resultvalue = 8.10

[[record]]
cpdsmiles = "Cc1nn(C)c2nnc(Nc3ccc(S(=O)(=O)N4CCCNCC4)cc3)nc12"
testedon = "Carbonic anhydrase 12 (Homo sapiens, UniProt O43570)"
measurename = "pKi"
resultvalue = 8.23

[[record]]
cpdsmiles = "Cc1nn(C)c2nnc(Nc3ccc(S(=O)(=O)NCCN4CCOCC4)cc3)nc12"
testedon = "Carbonic anhydrase 12 (Homo sapiens, UniProt O43570)"
measurename = "pKi"
resultvalue = 8.21

[[record]]
cpdsmiles = "Cc1nn(C)c2nnc(Nc3ccc(S(=O)(=O)N4CCNCC4)cc3)nc12"
testedon = "Carbonic anhydrase 12 (Homo sapiens, UniProt O43570)"
measurename = "pKi"
resultvalue = 8.24

